Test system: NCI-H322M lung
Experiment: NCI-60 one-dose screen, 48 h (100 = growth as untreated, 0 = no growth, -100 = all killed)
Conditions: 10 µM unless noted
This is part of a sample that, as a whole, favours compounds with a hit. Of some 83,000 tested, about 20% had one in any assay.
experimental-endpoint: growth (%)
Give the quantity in %, number only.

Recorded results for 3 compounds are shown here.
> print(dat)
                                   compound  measurement
1  CN(C)CCCC1(c2ccc(F)cc2)OCc2cc(-c3csc4ccccc34)ccc21 (stereo not given)           27
2  c1ccc(-c2c(-c3ccccc3)[n+](Cc3ccc4ccccc4c3)cn2Cc2ccc3ccccc3c2)cc1        -20.8
3  CC(C)n1c2ccc(Br)cc2c2c3c(c4c5ccccc5ccc4c21)C(=O)NC3=O         70.9

## Task Please report growth for the following compound: `O=c1oc2c(cc1-c1ccccc1)c(=O)[nH]c1ccccc12`
## Result 104

## Task Please report growth for the following compound: `COc1ccc(-c2cc(-c3cc(OC)ccc3OC)nc(SCC(C)=O)c2C#N)cc1`
## Result 97.6

## Task Please report growth for the following compound: `Oc1nc(NCc2ccccc2)sc1/C=C1\C=Nc2ncccc21`
## Result 61.9

## Task Please report growth for the following compound: `CCOC(=O)CNC1=C(Cl)C(=O)N(Cc2ccc(Cl)cc2)C1=O`
## Result 97

## Task Please report growth for the following compound: CC(O)Cc1c[nH]c(=O)[nH]c1=O (stereo not given)
## Result 132

## Task Please report growth for the following compound: CNC(=O)NCC1OC(n2cnc3c(NC(=O)Nc4ccccc4)ncnc32)C2OC(=O)CC12 (stereo not given)
## Result 101

## Task Please report growth for the following compound: `CNCCCNc1nc2ccccc2c2c(=O)c3cc(Cl)ccc3sc12`
## Result 70.4

---

Tested on: SR leukemia
Assay: NCI-60 one-dose screen, 48 h (100 = growth as untreated, 0 = no growth, -100 = all killed)
Details: 10 µM unless noted
The panel holds about 83,000 compounds, 20% with a hit somewhere; the sample as a whole holds those more often.
As shown below, each of these compounds has a reported growth value.
Give the quantity in %, number only.

Recorded results for 6 compounds are shown here.
> print(dat)
                                   compound  measured.on  u  measurement
1  C=C(c1ccc(C(=O)O)c(F)c1)c1cc2c(cc1C)C(C)(C)CCC2(C)C  SR leukemia  %         86.8
2  C=C(C)[C@@H]1CC[C@]2(C(=O)Nc3ccccn3)CC[C@]3(C)[C@H](CC[C@@H]4[C@@]5(C)CCCNC(C)(C)[C@@H]5CC[C@]43C)[C@@H]12  SR leukemia  %        -29.5
3     O=c1oc2c(cnc3ccccc32)cc1-c1cccc(Cl)c1  SR leukemia  %           93
4          COc1ccccc1/C=C/C(=O)Nc1ccc(F)cc1  SR leukemia  %           95
5  C#CCOc1cccc(Nc2ncnc3cc(NC(=O)CCl)ccc23)c1  SR leukemia  %        -47.7
6  Cc1ccc(S(=O)(=O)OCC#CCOS(=O)(=O)c2ccc(C)cc2)cc1  SR leukemia  %         10.8

## Task Please report growth for the following compound: CCn1cc(C(=O)O)c(=O)c2cc(F)c(N3CCN(CC(=O)Nc4ccccc4)C(C)C3)c(F)c21 (centres undefined)
## Result 109

## Task Please report growth for the following compound: `Ic1ccc(Nc2nc3nonc3nc2Nc2ccc(I)cc2)cc1`
## Result -12.6

## Task Please report growth for the following compound: `CC(C)c1ccc2c(c1)CC[C@H]1[C@](C)(C(=O)OCC#CCN3CCCC3)CCC[C@]21C`
## Result 52.5
